# System: HOP-18
# procedure-summary: NCI tumour cell line growth inhibition, 48 h
Calls of active or inactive are those of the source. Rule as the data show it: active = GI50 up to about 1.1 µM and inactive = higher.
experimental-readout: GI50

[
  {
    "compound": "CCc1cc(C)cc2[n+]1CC=C2.[O-][Cl+3]([O-])([O-])[O-]",
    "result": "0.0676 µM (active)"
  },
  {
    "compound": "CN[C@@H]1C[C@H]2O[C@@](C)([C@@H]1OC)n1c3ccccc3c3c4c(c5c6ccccc6n2c5c31)C(=O)N[C@@H]4O",
    "result": "0.01 µM (active)"
  },
  {
    "compound": "CN1NC(c2ccccc2)=C(C#N)C(=O)CC1c1ccccc1Cl (stereo not drawn)",
    "result": "67.3 µM (inactive)"
  },
  {
    "compound": "Cc1cccc(-c2nc3c(C(=O)NCCN(C)C)cccc3[nH]2)c1",
    "result": "0.605 µM (active)"
  },
  {
    "compound": "CCOC(=O)NC(=O)c1cn(CCCOC(=O)CCCCCCCCCCC(=O)OCCCn2cc(C(=O)NC(=O)OCC)c(=O)[nH]c2=O)c(=O)[nH]c1=O",
    "result": "> 100 µM (inactive)"
  },
  {
    "compound": "O=C1/C(=N\\O)C2CCC1C2 (stereo not drawn)",
    "result": "> 100 µM (inactive)"
  },
  {
    "compound": "Nc1c(S(=O)(=O)O)cc(S(=O)(=O)O)c2ccc(/N=N/c3ccc(/C=C/c4ccc(/N=N/c5ccc6c(S(=O)(=O)O)cc(S(=O)(=O)O)c(N)c6c5O)cc4S(=O)(=O)O)c(S(=O)(=O)O)c3)c(O)c12",
    "result": "> 100 µM (inactive)"
  }
]

Now let's try a different one.
GI50 recorded for this compound, O=C1c2ccccc2C(=O)N1C/C=N/NS(=O)(=O)c1ccc(Br)cc1 , is > 100 µM (inactive)

----------
# Tested on: SNB-75
# procedure-summary: NCI tumour cell line growth inhibition, 48 h
Active and inactive are the calls of the source. No stated cut-off is given here; in the data, active = GI50 up to about 1.1 µM and inactive = higher.
Entries and their measured GI50 follow.

[
  {
    "molecule": "O=C(CN1CCN(C(=O)OCc2ccccc2)CCN(CC(=O)N2CCCCC2)CCN(C(=O)OCc2ccccc2)CC1)N1CCCCC1",
    "experimental-readout": "GI50",
    "result": "4.22 µM (inactive)"
  },
  {
    "molecule": "Cc1cccc(CP(Cc2cccc(C)c2)CC2(Cp3c4ccccc4c4ccccc43)COC2)c1",
    "experimental-readout": "GI50",
    "result": "0.501 µM (active)"
  },
  {
    "molecule": "COc1ccc2c3c1OC1C(OC)(OC)CC4(C=C2)CN(C)CCC314 (stereo unspecified)",
    "experimental-readout": "GI50",
    "result": "> 100 µM (inactive)"
  },
  {
    "molecule": "CCN(CC)CCCNc1ccc2nc(C)n3c4ccc(O)cc4c(=O)c1c23",
    "experimental-readout": "GI50",
    "result": "0.881 µM (active)"
  },
  {
    "molecule": "Cc1ccc(NC(=O)c2cccc(OP(=O)(O)Nc3ccc(C)cc3)c2)cc1",
    "experimental-readout": "GI50",
    "result": "20.2 µM (inactive)"
  }
]

Just so you know, measured GI50 for O=C1C(NS(=O)(=O)c2ccccc2)=C(N(Cc2ccccc2)Cc2ccccc2)C(=O)c2ccccc21 came out at 70.8 µM (inactive)

----------
# System: ACHN
# procedure-summary: NCI tumour cell line growth inhibition, 48 h
Activity calls are given as the source filed them. No stated cut-off is given here; in the data, active = GI50 up to about 1.1 µM and inactive = higher.
GI50: recorded values

# example entries with known answers
[
  {
    "compound": "CC1(C)OCC2OC(n3cnc4c(N)nc(Cl)nc43)C(OS(C)(=O)=O)C2O1 (configuration not stated)",
    "GI50": "> 100 µM (inactive)"
  },
  {
    "compound": "C/C=C/[C@@H]1O[C@H](CC#C[Si](C)(C)C)[C@@]2(C=O)C(C)=CC[C@H](C(C)C)[C@@H]12",
    "GI50": "19.2 µM (inactive)"
  },
  {
    "compound": "Cn1cc2ccccc2c1-c1nc(F)nc(Oc2ccc3c(c2)CC[C@@H]2C3CC[C@@]3(C)C2CC[C@@H]3O)n1 (some centres not stated)",
    "GI50": "17.7 µM (inactive)"
  },
  {
    "compound": "O=C(O)c1ccc(/C=N/N=C2c3ccccc3-c3ccccc32)cc1",
    "GI50": "48.3 µM (inactive)"
  },
  {
    "compound": "CN1CCN(/C(N)=C(\\C#N)C(=O)Nc2ccc(Cl)cc2)CC1",
    "GI50": "> 100 µM (inactive)"
  }
]

Could you now look at the following compound, please?
Value of measured GI50 for the entry O=C(/C=C/c1ccccc1)CSc1nc[nH]n1 : > 100 µM (inactive)

----------
# Tested on: SF-295
# procedure-summary: NCI tumour cell line growth inhibition, 48 h
Active and inactive are the calls of the source. No stated cut-off is given here; in the data, active = GI50 up to about 1.1 µM and inactive = higher.
Allowed answers: T (active), F (inactive)

Reference set (5 entries):
[
  {
    "compound": "CCCCC(CC)C(=O)Oc1ccc(C(=O)c2ccccc2)c(O)c1 (stereo not given)",
    "experimental-system": "SF-295",
    "class": "F"
  },
  {
    "compound": "COc1cc2c(c(OC)c1OC)-c1ccc(OC)c(=O)cc1[C@@H](NC(=O)c1ccccc1)CC2",
    "experimental-system": "SF-295",
    "class": "T"
  },
  {
    "compound": "CCc1cc(C)cc2[n+]1CC=C2.[O-][Cl+3]([O-])([O-])[O-]",
    "experimental-system": "SF-295",
    "class": "F"
  },
  {
    "compound": "CCN(CC)CCC1CCCCN1CC(=O)N1c2ccccc2NC(=O)c2ccccc21 (stereo not given)",
    "experimental-system": "SF-295",
    "class": "F"
  },
  {
    "compound": "COC1=CC2=NCCc3n[nH]c(c32)C1=O",
    "experimental-system": "SF-295",
    "class": "F"
  }
]

We next turn to a different compound, shown below.
Given Cc1[nH]c(-c2ccccc2)c2nc(N(C)C)oc(=O)c12 , state the outcome it received in this test.
F

----------
# Test system: COLO 205
# procedure-summary: NCI tumour cell line growth inhibition, 48 h
Activity calls are given as the source filed them. No stated cut-off is given here; in the data, active = GI50 up to about 1.1 µM and inactive = higher.
# Lookup of reported GI50 keyed by entry

[
  {
    "compound": "CN(C)CCNc1ccc2ncn3c4ccc(O)cc4c(=O)c1c23",
    "experimental-system": "COLO 205",
    "GI50": "0.698 µM (active)"
  },
  {
    "compound": "CC1CCCC2(CC[N+](C)(CCC[N+](C)(C)C)CC2)C1 (configuration not stated)",
    "experimental-system": "COLO 205",
    "GI50": "> 100 µM (inactive)"
  },
  {
    "compound": "Nc1nc(N)c2nc(CN(C=O)c3ccc(C(=O)O)cc3)cnc2n1",
    "experimental-system": "COLO 205",
    "GI50": "> 100 µM (inactive)"
  },
  {
    "compound": "CNC(=O)CCCNC(=O)CCCC(=O)N(C)C",
    "experimental-system": "COLO 205",
    "GI50": "> 100 µM (inactive)"
  },
  {
    "compound": "N#Cc1c(Cl)cc(Cl)n2c1nc1ccccc12",
    "experimental-system": "COLO 205",
    "GI50": "3.52 µM (inactive)"
  },
  {
    "compound": "Cc1[nH]c(-c2ccccc2)c2nc(N(C)C)oc(=O)c12",
    "experimental-system": "COLO 205",
    "GI50": "> 100 µM (inactive)"
  },
  {
    "compound": "CCN(CC)CCC1CCCCN1CC(=O)N1c2ccccc2NC(=O)CC1C (configuration not stated)",
    "experimental-system": "COLO 205",
    "GI50": "> 100 µM (inactive)"
  },
  {
    "compound": "Nc1nnnn1NC(=O)NCCCl",
    "experimental-system": "COLO 205",
    "GI50": "> 10 µM (inactive)"
  }
]

Sure, the documented GI50 for CCCC1(CCC)c2cc(/C=N\O)ccc2-c2ccc(-c3ccc(C(C)(C)C)cc3)cc21 is > 100 µM (inactive)

----------
# Test system: LOX IMVI
# procedure-summary: NCI tumour cell line growth inhibition, 48 h
Activity calls are given as the source filed them. No stated cut-off is given here; in the data, active = GI50 up to about 1.1 µM and inactive = higher.
Reported GI50 values follow for various compounds

[
  {
    "smiles-entry": "Nc1nc(SCc2ccccn2)c2ncn(C3CCCC3)c2n1",
    "GI50": "> 100 µM (inactive)"
  }
]

Sample c1csc(-c2cc(-c3cccs3)c(-c3ccsc3)s2)c1 ; GI50 observed: > 100 µM (inactive)
